PBM binding z-score overview
tested on: PPARg:RXRa 270nM:90nM, anti-RXR (NR concentration 270 nM, RXRa partner concentration 90 nM); experiment: PBM binding z-score (relative to random genomic background probes); higher = stronger binding; sequences stand for … in GC…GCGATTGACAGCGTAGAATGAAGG

Input line: Could you please provide reported PBM binding z-score for `ACTCGGTGGACAAAGGTCAGAGCTACGCCAGTGA` ? Thanks!
Output line: 6.42

Input line: Could you please provide reported PBM binding z-score for `TTACCAAGGTGAACGGTCGTTGATGCACGCCTTG` ? Thanks!
Output line: 2.8

Input line: Could you please provide reported PBM binding z-score for `GCTGCTAGTTCAACTGATGGTCAGCTAAAGCTCG` ? Thanks!
Output line: -0.212

Input line: Could you please provide reported PBM binding z-score for `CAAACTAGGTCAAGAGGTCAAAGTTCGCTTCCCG` ? Thanks!
Output line: 9.13

Input line: Could you please provide reported PBM binding z-score for `CGAACTAGGTCACCCAGGACAGTGAATACATTGA` ? Thanks!
Output line: 6.66

More entries:
Input line: Could you please provide reported PBM binding z-score for `AGTCAAAGGTCATCTAGGTAACGTAAGATATGCT` ? Thanks!
Output line: 8.23

Input line: Could you please provide reported PBM binding z-score for `CGAACTAGGTCGCCAGGACAGTGAAGAGGTTGGA` ? Thanks!
Output line: 2.49

Input line: Could you please provide reported PBM binding z-score for `TGTATGAGGTTAAAGATCAGGGAACGTGGCGTCG` ? Thanks!
Output line: 5.21

Input line: Could you please provide reported PBM binding z-score for `CCTAGCAGGCCAATCTAGGTCACTCAAGGCTTGA` ? Thanks!
Output line: 2.47

Input line: Could you please provide reported PBM binding z-score for `AGAACGAGGTCACGCTGAGTTGATAGCAGAGTAG` ? Thanks!
Output line: 8.1

Input line: Could you please provide reported PBM binding z-score for `TCTAGTAGGTCAAAGGTCACACACTCGAAATGCG` ? Thanks!
Output line: 11.6

Input line: Could you please provide reported PBM binding z-score for `CCGACGGGGGCAAAGGTTACCATACTCAGTACGA` ? Thanks!
Output line: 9.24

Input line: Could you please provide reported PBM binding z-score for `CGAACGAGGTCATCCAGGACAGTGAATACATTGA` ? Thanks!
Output line: 7.07

Input line: Could you please provide reported PBM binding z-score for `CAAACGAGGTCACGAAAGGTCAAAGTCGAATGAC` ? Thanks!
Output line: 8.71

Input line: Could you please provide reported PBM binding z-score for `CCTTACGGGTCCCTCCAGGTTATAGCATCGGAGT` ? Thanks!
Output line: -0.6

Input line: Could you please provide reported PBM binding z-score for `TAGCCTAGTTCATGCGGGCCAGTATAGTGTCGGC` ? Thanks!
Output line: -0.0482

Input line: Could you please provide reported PBM binding z-score for `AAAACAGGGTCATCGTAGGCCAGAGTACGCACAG` ? Thanks!
Output line: 6.86

Input line: Could you please provide reported PBM binding z-score for `CCGAGGAGGTTACGAGGGGGCATTCAGTGCGAAT` ? Thanks!
Output line: 3.52

Input line: Could you please provide reported PBM binding z-score for `TCTAGTTGGTCACGGAGGGCACACACGACGGGTA` ? Thanks!
Output line: 2.05

Input line: Could you please provide reported PBM binding z-score for `ATCGAAAGGTCGACCAGGTGAGTATACACCGTTT` ? Thanks!
Output line: 3.34

Input line: Could you please provide reported PBM binding z-score for `CGAACAAGGTCACCAGGACAGTGAAGAGGTTGGA` ? Thanks!
Output line: 7.38

Input line: Could you please provide reported PBM binding z-score for `CCTACTGGGCCGTTCAGAGGTCATTGATCATATG` ? Thanks!
Output line: 2.48
